The entries below come with measured IC50 values attached.
# SUBJECT_OF_TEST: recombinant human mPGES-1 (Homo sapiens)
# Sequence (O14684 whole entry): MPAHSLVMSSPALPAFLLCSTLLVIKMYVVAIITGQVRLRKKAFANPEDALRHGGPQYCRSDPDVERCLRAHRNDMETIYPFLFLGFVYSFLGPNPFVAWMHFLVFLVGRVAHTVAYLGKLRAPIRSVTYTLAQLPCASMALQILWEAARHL
# EXPERIMENT_SUMMARY: Assay B: mPGES-1 enzyme assay (modified)
# Assay type: biochemical
# CONDITION_INFO: biological assay B (all other compounds); PGH2 final conc. 2 μM, HTRF; read-out: mPGES-1 inhibitory effect IC50
Reply with the number and its unit after it.

Recorded IC50, per entry:
[[record]]
mol_smiles = "CC(C)(C(=O)NCc1ccc(Cl)c(C(=O)Nc2ccc(N3CCC(C(F)(F)F)CC3)c(C(=O)NCC3CC3)c2)c1Cl)C(F)(F)F"
endpoint_value = "5 nM"

[[record]]
mol_smiles = "CC(C)(C(=O)NCc1ccc(Cl)c(C(=O)Nc2ccc(OCC(F)F)c(C(=O)NCc3ccccc3C(F)(F)F)c2)c1)C(F)(F)F"
endpoint_value = "6 nM"


Incoming: What value of IC50 has been recorded for this entry: Cc1cc(NC(=O)c2cc(NC(=O)c3cc(CNC(=O)C(C)(C)C(F)(F)F)ccc3Cl)ccc2OCC(F)F)ccc1Cl
Outgoing: 6 nM

Incoming: What about Cc1ccc(Cl)cc1NC(=O)c1cc(NC(=O)c2c(Cl)ccc(CNC(=O)C(C)(C)C(F)(F)F)c2Cl)ccc1OCC(F)F ?
Outgoing: 5 nM

Incoming: What about CC(C)(C(=O)NCc1ccc(Cl)c(C(=O)Nc2ccc(OCC(F)F)c(C(=O)NCC3CCC3)c2)c1)C(F)(F)F ?
Outgoing: 5 nM
